TEST_METHOD_NOTES: soluble on expression in E. coli; label from the status in PepcDB or PDB records
MEASURED_QUANTITY: soluble on expression in E. coli

- MSRGYYRTEEEIVQDKVLHRDPGIIEENYASKPPSRRSSSNTNPDSLVNQKHAQPLPSPLHSPVKSVTGSSKNQSPKMAPVRSNSRGSSASSEEDIGTRSFSISVLKDSGTKVEIMLKAHGLRKKKGFINSLVTVFKKPSQPSRLLSNGKFTEFVLTEHALRFLLEVKTDKKKKKGNGNRLDTFLCEVKRFPSDVNPDSAEFEVLEPASGEAFILLTLIKTGNLSTNWKEFLDTHGTLDVSTI: soluble
- MNKTIIAERFSKAISTYPREANVQRQIANKMIRLLQKHIPSPCPKVIEFGCGTGIYSRMLLRTLRPEELLLNDLCPEMRYCCEDLLREKQVSFLSGDAETISFPDKSTLITSCSALQWFDSPEEFFKRCNTLLHSQGYFAFSTFGKKNMKEIRELTGKGLPYRSREELEAALSLHFDILYSEEELIPLSFEDPMKVLYHLKQTGVNGLSAQSSLYPKHEKQTWTRRDLQHFCERYTQEFTQGTSVSLTYHPIYIIAKKKKV: soluble
- MSYYLVQSTDEDILKHAECGGAVTAFFKYLLDKKLVDGVLALKKGEDVYDGLPYLVNDSKELVETCGSLHCAPTMFGNMISKHLKDMNLAVSVKPCDAMAIVELEKRHQIDKDKLYTIGLNCGGTVPPQTAKKMIELFYDVDPEDVIKEEIDKGKFIIELKDGSEKSVKIDELEEEGYGRRTNCQRCELKVPRNSDLACGNWGTEKGWTFVEVGSEKGEELLKNAQKEGYINVKAPSEKALEIRGKIEKSMINLGKKFQKEQLDEKYPEPEKWDEYWSRCIKCYGCRDVCPICFCKECALGEDYLDKGTIPPDPIMFQGIRLSHMSFSCINCGQCEDVCPVEIPLAKIYHRAQLKIRETTGFVPGIDDSMPFLYKLEHHHHHH: not soluble
- HMDIRTITSSDYEMVTSVLNEWWGGRQLKEKLPRLFFEHFQDTSFITSEHNSMTGFLIGFQSQSDPETAYIHFSGVHPDFRKMQIGKQLYDVFIETVKQRGCTRVKCVTSPVNKVSIAYHTKLGFDIEKGTKTVNGISVFANYDGPGQDRVLFVKNI: soluble
- MSLNLNVLEIKSFVPAQDFTTSKQFYLSLGFELITEFGDVAYLRLGQCAFLLQNTHQRPHQGNTMMHLLVEDAQSWFDHVKTLQLEERFESKVTDLITQPWGMLEFCLVDPSDVLWRIGQRIGEGHHHHTTDPNSSSVDKLAAALEHHHHHH: soluble
- MTGLDKIISQILEDAGKEAQEISEKAKSEAEAVLAEAKAGCKKIAAENDEKLAGEATSYMERIKSSAELKKRQAVLLAKQQVITEMLEQAYEALLKKEGEEYFALIGKMLDKYVLPKTGEIYFSEKDLDRMPQGFEAVIEKAAVSKGGSLTLVKEPKNIDGGFILVYGGIEENCSFRALLAARRDELSDKVHAMLFS: not soluble

---

TEST_METHOD_NOTES: soluble on expression in E. coli; label from the status in PepcDB or PDB records
MEASURED_QUANTITY: soluble on expression in E. coli

- MLQDAVEDLGCELWGIECQRVGRFMTVRLFIDKDGGVTVDDCADVSRQVSAILDVEDPIADKYNLEVSSPGLDRPLFTLPQFERYIGQDIAVHLRIPVMERRKWQGKLERIEKDMITLIVDDQEQILVFGNIQKANVVAKF: not soluble
- MTLPFKNGRGTMKINGVTIQMLPAASGDCIYLEFPDSDFRMLIDGGYAKTYQKYLKKFLLKLAAEGKRLNLIVVTHIDDDHISGIRALLKENGDSRNPKIIEIDEIWFNSLNQCITSRNAEQGMSFAVKIILKSMCSTDIDFECEYKKQNISYTNGKNLAELIQAGGYRWNASVVNNLVSKGQIVQFGDLKITILNPGIETLTKMGKKWLYHLKQINSNNIEITRDPLFDAAFEGFLLNNEKNIEFKQENISYSSEDLDWLDKYAEYKDIEMDSKITNCSSIAILIDYKDIKMLFPGDSPIQLFENELPKILDVIKLPHHGSAKNISLEFIKNTKVKYYLLSTDGKRYIDHPGKAVIANIIKNTGNNTELIKNYEIKFLKGLGKLDAED: not soluble
- MGSDKIHHHHHHMSAPTITTLGEFLQAGQAEYKIFDIGRCLTELSQEEFAAIEQQQRPYPYPIARQAQLAILFQHKQHDQQPFIWFLQFPLDERGLLNIAARNQYLEYVVNALGHEITGEMTEEQQKQLQQNPYLLTPNEQQRAALHARVQRQQKLSPSIHFETAEAYLKQPESGIDWQQMGLQGLHDCAARLEQLPELSKAIATHFSHYPSAVRQPLAVALEQQSLTPPVRDALLQNLESSNAQLCTDSLRALASASAHPRVKKAVNKLVPHANADQLVVIAARLWPVLCEEQNLLRYLDAIAELDNSLFDALFQDIIALPDIRPLLLSIIAQQKQSAAVNEALNRLKQQTQGS: not soluble
- MSLKKLVIFDLDGTLLNTIADLAHSTNYALNKLGYPTHEIEKYNFMVGNGIDKLFERALPEGEKSKENVLRVRKEFVPYYDIHNADDSRPYPGIPELLSYLQDAGIQITVASNKYQAATQKLIDHYFPEIHFTAVFGQREGIKVKPDPTVVFDILEVAKVTKEEVLYVGDSGVDMQTAANAGVTVCGVTWGFRPRAELEEFSPQYIVDTAEEIKRLILEGHHHHHH: soluble
- MFTGLVEETGEILKVEEGPFLRVYIGARKVLKDLKVGDSVAVDGACLTAVTVEEGGFWVELAQETLRRTAPTWRVGHRPNLERALKVGDRLGGHFVTGHVDGVARLWEVREAPGAKDFYFLPPKALAPYIAEKGSVALNGVSLTVAGLTGEAFWVTLIPHTLEVTNLGRLRVGDGVNLEVDLIARYVARLLGRA: soluble
- MSLNEITVSLDVIIKNKNVMVSSLSVAKAFDRQHSHILRSIEDIKRDWDSLIQSKNGLNRNIIPLKSQGNKQVIFTDYFKESEYIAENGRLVKFFEMNRNGFMLLANSFNGKRILPIKLAFIERFDELEHITLEQAKETENRKNLNQAIKESPHFKPFYYSRFSDFLCQLITHNKYKTVKKLREDKGYYGKQFSKIPLKSMLDSEEDLKRLQKLENSIIAWLEIDYSFREIKAFLTKEKAQPLPTKEGHHHHHH: not soluble
- MGSDKIHHHHHHVENWDEVRTAYQVARLGTVSGAADVLGVHHATVIRHIDAIEARLGVKLFQRHARGYTATEAGLDLLRVAQATDDQFSQLVGRLKGQGDEVSGELVVTSLSSMAPMLAPALAEFQQLHPDLVIRYLTGDRLFRLEYGEAHVALRAGAAPEQPDNVVQPFVAQRLALYASREYVERHGMLKGQDDMVNHRFIASDNENTRAPFERWLRSTIPAENIVFRCSDAVAGHQAIRAGAGIGFVSLWEAASSPDLVMMMDPHDEWSGKIWLVTHVDLHRTNKVQSFVRFLKEHAKSWPQ: not soluble
- MSLNANRPIINLDLDLLRTFVAVADLNTFAAAAAAVCRTQSAVSQQMQRLEQLVGKELFARHGRNKLLTEHGIQLLGYARKILRFNDEACSSLMFSNLQGVLTIGASDESADTILPFLLSRISSVYPKLALDVRVKRNAYMVDMVKSQEVDLVVTTNQPHSLDCLNLRTSPTHWYCAAEYVLQRGEPVPLVLLDDPSPFRDMVLETLNAAGIPWRLAYVASTLPAVRAAVKAGLGVTARPVEMMSPDLRVLGAADGLPPLPDTEYLLCRDPNSQNELAMVIFHAMESYQNEGHHHHHH: soluble
- MGSDKIHHHHHHMNKYIMLLMVSLLSACSSTPRKPIPDDPFYAPVYPDAPATQTAATGSIFLDSQASSLYSDIRAHKIGDIITVVLMESTQAKKSATNDIKKGSDMSMDPLFAGGGNVTIKGVPLDLKYKDAYNTKRESDADQSNSLAGSISANVMQVLSNGNLVIRGEKWISINNGDEFIRVTGIVRSQDIKPDNTIESVRVANARIQYSGTGTFADAQKVGWLGQFFLGEWWPF: not soluble
- MAHHHHHHMKKKGCHSDRKHCQKHVQAELCLFILHSVLRKCPNKMVHSILQNSHGNIRKKFEISLKHETSTPAPQKRRREVLLKRKTNSKRGNRA: not soluble
- MGSDKIHHHHHHMTRFRSTLPQVNGTTLLTDSGLETTLIFHDGLDLPCFAAYPLMETAEGRAVLRDYFQRHLAIASERSAGFLLESPTWRASRDWGAQLGHGPDDLARLNNDAIAMLVDLRDDATGVGPIVISGNIGPRGDGYVADAAMTADEAEDYHAEQIGWFAQSEVDLATAVTLSTVAEGVGVIRAAHRVDLPVVVSFTTETDGRLPDGTPLGRAIEQTDALTDGAAAYFMVNCAHPDHFRPVLDTGTAWLNRIGGVRANASRMSHAELDEAETLDAGDPAELGRDYRDLRQILPNLTVIGGCCGTDHRHIEAMADRCLGHNAA: not soluble
- MKVVQRKIKKSGKDRKRIGRGGSAYILDKRRITAVQNMKREAEKEKLRERFAAAANMPKDVVLGASVVTVIGNGEISIENYRGILEYTGELIRVQTKKGQIQVHGKGLQIEYYLNDEMKITGKIHTLEYEMLEHHHHHH: soluble
